targetSystem: T1, EGFR Fc (human, UniProt P00533 25-645)
T1 construct: also called EGFR-hFc; recombinant human EGFR-Fc
experimentalDetails: blocking ELISA, EGFR-hFc + VHH at 1000 nM on coated EGF-mFc
readoutLabel: OD450

Q) Tell me the measured OD450 of pgEG-SX22 (VHH, not shown: small tags and cut ends) VHH: QVQLVESGGGLVQAGGSLRVSCAVSGGALSAYAMAWFRQAPGKEREFVAGLNWGGDETYYADSAKGRFTISKDNAKNTVSLQMNSLEPEDTAVYYCGGRPGPLLSRATGYKYWGQGTQVTVSS , please.
A) 0.96

Q) Tell me the measured OD450 of pgEG-SX40 (VHH, not shown: small tags and cut ends) VHH: QVQLVESGGGLVQAGGSLRLSCTGSGIRFSFYTLGWYRQAPGKQRELVAEIYSSDNAKYEDSVKGRFAISRDNAKNSVSLQMNSLKPEDTAVYYCNVRATDYWGPGTQVTVSS , please.
A) 0.151

Q) Tell me the measured OD450 of pgEG-SX6 (VHH, not shown: small tags and cut ends) VHH: QVQLVESGGGTVQAGGSLRLSCVASGMREDIFDMGWYRQAPGLQRELVATITSGGSTDYADSVKGRFTISRDNTENTLNLQMNMLKPEDTAVYYCNALYFPPSGGRSSEFWGQGTLVTVSS , please.
A) 0.646

Q) Tell me the measured OD450 of pgEG5 (VHH, not shown: small tags and cut ends) VHH: QVQLVESGGGLVQPGGSLRLSCTASHNIFSDNAMAWSRQAPGAQRELVARIATGGNTYYPDSVKGRFTISRDNAKNTVYLQMNNLTPDDTAVYYCYAERWTGLEYSRTYWGQGTQVTVSS , please.
A) 1.22

Q) Tell me the measured OD450 of pgEG-SX57 (VHH, not shown: small tags and cut ends) VHH: QVQLVESGGGLVQAGGSLRLSCAGARSIFSIKPMTWYRQAPGKERELVAWFTSGDSPNYADSVKGRFTISRDSAKNTVYLQMNNLKPEDTAVYYCNAVPPLGRWGQGTLVTVSS , please.
A) 0.15

Q) Tell me the measured OD450 of pgEG-SX3 (VHH, not shown: small tags and cut ends) VHH: QVQLVESGGGLVQAGGSLRLSCVVYGSIFASTTMGWYRQAPGKQRELVATVYQSGTSVYADSVKGRFTASRDNAKKTVYLQMNSLKPEDTAVYYCHPRATDYWGRGTQVTVSS , please.
A) 0.336
